Items are presented alongside their recorded koff.
# Assay target: T1, PHF-tau (paired helical filament tau isolated from Alzheimer's disease brain) (human, UniProt P10636-8 2-441, limits assumed, hyper-phosphorylated, aggregated; sites not listed for the preparation)
# T1 construct: also called enriched PHF-tau; ePHF-tau
# T1 sequence (P10636 other isoform, or with tags, fused parts or gaps limits assumed): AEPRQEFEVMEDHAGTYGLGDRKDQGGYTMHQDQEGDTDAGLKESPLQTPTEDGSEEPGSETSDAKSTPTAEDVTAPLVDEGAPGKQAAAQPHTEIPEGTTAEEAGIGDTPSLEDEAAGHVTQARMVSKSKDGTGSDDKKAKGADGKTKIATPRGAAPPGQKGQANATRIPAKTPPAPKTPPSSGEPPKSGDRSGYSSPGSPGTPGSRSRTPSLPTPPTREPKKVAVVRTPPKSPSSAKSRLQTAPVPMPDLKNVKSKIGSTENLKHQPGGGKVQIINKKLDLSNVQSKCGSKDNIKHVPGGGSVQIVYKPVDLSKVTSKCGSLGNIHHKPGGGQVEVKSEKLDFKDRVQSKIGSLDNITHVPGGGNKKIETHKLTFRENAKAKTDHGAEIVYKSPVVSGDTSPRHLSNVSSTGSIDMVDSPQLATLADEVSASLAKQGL
# Assay: SPR ProteOn, PHF-tau capture-coupled via HT7, bivalent model
Lab book: enter the figure in s⁻¹, no units written.

Example binders with recorded koff:
>>> value_measured("B296 (antibody, human IgG1, kappa, V domains shown, Humanized PT3, human IgG1/kappa; also called VH92/VL77; HFA-PT3) VH: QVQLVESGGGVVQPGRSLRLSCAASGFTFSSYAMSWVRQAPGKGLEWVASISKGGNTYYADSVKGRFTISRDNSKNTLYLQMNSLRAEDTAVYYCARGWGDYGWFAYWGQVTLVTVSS VL: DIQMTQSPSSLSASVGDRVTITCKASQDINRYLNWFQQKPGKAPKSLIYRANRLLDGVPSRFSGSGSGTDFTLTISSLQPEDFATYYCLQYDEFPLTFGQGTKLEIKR")
"1.17e-05"
>>> value_measured("B711 (antibody, human IgG1, kappa, V domains shown, also called PT1B711) VH: QVQLVESGGGVVQPGRSLRLSCAASGFTFTSYAMSWVRQAPGKGLEWVASITKGGNTYYADSVKGRFTISRDNSKNTLYLQMNSLRAEDTAVYYCARGWGIYGWFAYWGQVTLVTVSS VL: DIQMTQSPSSLSASVGDRVTITCKASQDINRWLNWFQQKPGKAPKSLIYRANRLLDGVPSRFSGSGSGTDFTLTISSLQPEDFATYYCLQYDEFPLTFGQGTKLEIKR")
"1.13e-05"
>>> value_measured("B333 (antibody, human IgG1, kappa, V domains shown, also called PT1B333) VH: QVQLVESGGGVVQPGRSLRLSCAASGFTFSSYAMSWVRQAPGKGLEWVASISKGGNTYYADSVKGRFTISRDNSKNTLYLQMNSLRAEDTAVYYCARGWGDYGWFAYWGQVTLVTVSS VL: DIQMTQSPSSLSASVGDRVTITCKASQDINRWLNWFQQKPGKAPKSLIYRANRLLDGVPSRFSGSGSGTDFTLTISSLQPEDFATYYCLQYDEFPLTFGQGTKLEIKR")
"6.8e-06"

Now take the following binder into account.
Ask | // returns reported koff for input B809 (antibody, human IgG1, kappa, V domains shown, also called PT1B809) VH: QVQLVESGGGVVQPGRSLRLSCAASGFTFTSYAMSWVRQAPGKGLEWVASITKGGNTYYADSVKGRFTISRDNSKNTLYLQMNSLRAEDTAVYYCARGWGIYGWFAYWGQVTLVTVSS VL: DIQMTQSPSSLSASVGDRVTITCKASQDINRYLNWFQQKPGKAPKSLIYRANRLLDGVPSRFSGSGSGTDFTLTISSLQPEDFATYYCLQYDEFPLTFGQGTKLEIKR
Reply | 1.27e-05
